- experimental.system: human α-thrombin (human, UniProt P00734 328-622)
- test.method.notes: cell-based or functional assay
measurement.name: IC50 (DCT), clotting assay, 37° C.

Request the reported IC50 (DCT), clotting assay, 37° C. associated with LDPRPQSHNDGDFEEIPEEYLQ (Synthetic) [LD22]
228 nM

Request: FDPRPQHHNDGDFEEIPEEYLQ [FD22-H]
70 nM

Request: GSAVPRPQIHNDGDFEEIPEEYLQ [GS-AV22-I]
33 nM

Request: FEPRPQDHNDGDFEEIPEEYLQ [FE22-D]
> 125 nM

Request: WDPRPQSRNDGDFEPIPEEYLQ [WD22-SR-P]
53 nM

Request: GSIQPRPQIHNDGDFEEIPEEYLQ [GS-IQ22-I]
10 nM

Request: FDPRPQRHNDGDFEEIPEEYLQ (Synthetic) [FD22-R]
32 nM

The values you see were collected from patent US20070042946A1.
